Endpoint: pIC50. System: DOR (Homo sapiens). Items follow.
Sequence (P41143 whole entry): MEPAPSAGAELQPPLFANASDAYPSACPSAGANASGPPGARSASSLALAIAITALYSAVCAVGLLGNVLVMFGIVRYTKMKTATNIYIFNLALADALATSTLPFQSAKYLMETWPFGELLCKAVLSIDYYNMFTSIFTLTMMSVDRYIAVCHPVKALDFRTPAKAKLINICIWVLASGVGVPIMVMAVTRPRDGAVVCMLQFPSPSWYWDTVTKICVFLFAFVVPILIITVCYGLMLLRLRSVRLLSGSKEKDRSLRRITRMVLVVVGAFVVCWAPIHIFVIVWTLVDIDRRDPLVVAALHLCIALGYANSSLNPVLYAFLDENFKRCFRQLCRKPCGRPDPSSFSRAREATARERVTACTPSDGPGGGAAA
Non-standard residues stand in square brackets, D forms with d. Residues, ends and D or L forms follow the SMILES beside them. *: point of attachment. NH(3,5-(CF3)2-benzyl) = FC(F)(F)c1cc(CN*)cc(C(F)(F)F)c1; NMePhe(4-F) = CN[C@@H](Cc1ccc(F)cc1)C(=O)O; Dmt = Cc1cc(O)cc(C)c1C[C@H](N)C(=O)O; NMeF = CN[C@@H](Cc1ccccc1)C(=O)O
Please express pIC50 as -log10 of the molar concentration.

Incoming: Give the measured pIC50 for CC(C)C[C@H](NC(=O)[C@@H]1CCCN1C(=O)[C@H](CO)NC(=O)[C@H](Cc1ccccc1)N(C)C(=O)CNC(=O)[C@@H](C)NC(=O)[C@@H](N)Cc1ccc(O)cc1)C(=O)N[C@@H](Cc1c[nH]c2ccccc12)C(=O)NCc1cc(C(F)(F)F)cc(C(F)(F)F)c1 [AKG126] (H-Y[dA]G[NMeF]SPLW-{NH(3,5-(CF3)2-benzyl)})
Outgoing: 6.83

Incoming: Give the measured pIC50 for Cc1cc(O)cc(C)c1C[C@H](N)C(=O)N[C@H](C)C(=O)NCC(=O)N(C)[C@@H](Cc1ccccc1)C(=O)N[C@@H](CCC(N)=O)C(=O)NCC(=O)N1CCC[C@H]1C(=O)N[C@@H](CC(C)C)C(=O)N[C@@H](Cc1c[nH]c2ccccc12)C(=O)NCc1cc(C(F)(F)F)cc(C(F)(F)F)c1 [AKG-SK-146] (H-[Dmt][dA]G[NMeF]QGPLW-{NH(3,5-(CF3)2-benzyl)}; N-terminus assumed)
Outgoing: 8.85

Incoming: Give the measured pIC50 for "CC(C)C[C@H](NC(=O)[C@@H]1CCCN1C(=O)[C@@H](CO)NC(=O)[C@H](Cc1ccccc1)NC(=O)CNC(=O)[C@@H](C)NC(=O)[C@@H](N)Cc1ccc(O)cc1)C(=O)N[C@@H](Cc1c[nH]c2ccccc12)C(=O)NCc1cc(C(F)(F)F)cc(C(F)(F)F)c1"
Outgoing: 7.13

Incoming: Give the measured pIC50 for "CC(C)C[C@H](NC(=O)[C@@H]1CCCN1C(=O)[C@H](CCC(N)=O)NC(=O)[C@H](Cc1ccccc1)NC(=O)CNC(=O)[C@@H](C)NC(=O)[C@@H](N)Cc1ccc(O)cc1)C(=O)N[C@@H](Cc1c[nH]c2ccccc12)C(=O)NCc1cc(C(F)(F)F)cc(C(F)(F)F)c1"
Outgoing: 7.69

Incoming: Give the measured pIC50 for CC(C)C[C@H](NC(=O)[C@@H]1CCCN1C(=O)[C@H](CO)NC(=O)[C@H](Cc1ccc(F)cc1)N(C)C(=O)CNC(=O)[C@@H](C)NC(=O)[C@@H](N)Cc1ccc(O)cc1)C(=O)N[C@@H](Cc1c[nH]c2ccccc12)C(=O)NCc1cc(C(F)(F)F)cc(C(F)(F)F)c1 [AKG134] (H-Y[dA]G[NMePhe(4-F)]SPLW-{NH(3,5-(CF3)2-benzyl)})
Outgoing: 7.84

More entries:
Incoming: Give the measured pIC50 for "CC(C)C[C@H](NC(=O)[C@@H]1CCCN1C(=O)CCCCCNC(=O)[C@H](Cc1ccccc1)N(C)C(=O)CNC(=O)[C@@H](C)NC(=O)[C@@H](N)Cc1ccc(O)cc1)C(=O)N[C@@H](Cc1c[nH]c2ccccc12)C(=O)NCc1cc(C(F)(F)F)cc(C(F)(F)F)c1"
Outgoing: 7.14
